biological target: UniProt:P25779
Sequence (P25779 whole entry): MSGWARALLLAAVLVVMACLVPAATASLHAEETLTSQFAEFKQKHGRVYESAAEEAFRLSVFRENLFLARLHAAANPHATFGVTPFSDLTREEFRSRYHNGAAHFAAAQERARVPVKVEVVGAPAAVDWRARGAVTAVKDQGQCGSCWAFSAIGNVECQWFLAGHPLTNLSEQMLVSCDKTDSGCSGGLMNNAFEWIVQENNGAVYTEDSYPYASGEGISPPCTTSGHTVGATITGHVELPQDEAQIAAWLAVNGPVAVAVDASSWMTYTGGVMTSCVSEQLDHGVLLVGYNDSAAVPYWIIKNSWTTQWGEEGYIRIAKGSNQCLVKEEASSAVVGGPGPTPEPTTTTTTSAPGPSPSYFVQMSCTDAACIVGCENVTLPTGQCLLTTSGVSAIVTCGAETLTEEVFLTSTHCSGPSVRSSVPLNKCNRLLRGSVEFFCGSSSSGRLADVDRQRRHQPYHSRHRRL
Property name: IC50 (µM)
Answers are plain numbers, in µM.

// recorded IC50 for `O=C(COCc1ccccc1Br)NCCc1nc2ccccc2[nH]1` : 77.5

###

For each of the compounds below, state its pIC50.
target: Rhodesain (Trypanosoma brucei rhodesiense)
Sequence (Q95PM0 whole entry): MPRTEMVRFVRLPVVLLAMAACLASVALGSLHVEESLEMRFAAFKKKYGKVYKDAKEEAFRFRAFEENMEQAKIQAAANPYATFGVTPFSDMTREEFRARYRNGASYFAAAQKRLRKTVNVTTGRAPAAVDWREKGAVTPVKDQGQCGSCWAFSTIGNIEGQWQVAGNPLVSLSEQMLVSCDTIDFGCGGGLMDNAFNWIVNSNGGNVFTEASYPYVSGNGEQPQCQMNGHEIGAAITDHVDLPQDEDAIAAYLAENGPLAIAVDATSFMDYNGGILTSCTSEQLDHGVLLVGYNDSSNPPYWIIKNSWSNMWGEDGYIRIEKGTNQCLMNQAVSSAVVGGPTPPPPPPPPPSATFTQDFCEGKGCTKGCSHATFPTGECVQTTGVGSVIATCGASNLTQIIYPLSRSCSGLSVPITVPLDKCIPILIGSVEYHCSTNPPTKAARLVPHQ
Give bare numbers, as −log10 of the molar value.

1. CCOC(=O)/C=C\C(=O)[C@H](CC(C)C)NC(=O)[C@H](Cc1ccccc1)NC(=O)OCc1ccccc1; 7.79

Provide each entry's pIC50 from the list below.
1. Clc1ccc2c(NCCN3CCOCC3)ccnc2c1
2. OCCNc1ccnc2cc(Cl)ccc12
3. Clc1ccc2c(NCc3ccccc3)ccnc2c1
4. CCCNc1ccnc2cc(Cl)ccc12
5. O=C(CNc1ccnc2cc(Cl)ccc12)N1CCOCC1

[reply]
[4.21, 4.24, 4.47, 4.47, 4.32]

Value sought for every listed compound: pIC50.
1. NCCNc1ccnc2cc(Cl)ccc12
2. OCCCNc1ccnc2cc(Cl)ccc12
3. CCOC(=O)/C=C/[C@@H](O)[C@H](CCc1ccccc1)NC(=O)[C@H](Cc1ccccc1)NC(=O)OCc1ccccc1

[reply]
3.90
4.14
4.70

The origin of these recorded values is ChEMBL document CHEMBL5244221.
